- TEST SYSTEM: UniProt:O94953
- METHOD NOTES: Inhibition of KDM4B (unknown origin) using H3K9me3 as substrate and measured by LANCE TR-FRET assay
pIC50: −log10 of the molar value.
PARAMETER MEASURED: pIC50

{"columns": ["SMILES STRUCTURE", "TEST SYSTEM", "REPORTED VALUE"],
 "data": [
  ["CN(c1ccccc1)c1ccc2c(c1)CCC[C@H]2CNc1cnccc1C(=O)O", "UniProt:O94953", 7.46]
]}

---

- TEST SYSTEM: Lysine-specific demethylase 4B (Homo sapiens, UniProt O94953)
- Sequence (O94953 whole entry): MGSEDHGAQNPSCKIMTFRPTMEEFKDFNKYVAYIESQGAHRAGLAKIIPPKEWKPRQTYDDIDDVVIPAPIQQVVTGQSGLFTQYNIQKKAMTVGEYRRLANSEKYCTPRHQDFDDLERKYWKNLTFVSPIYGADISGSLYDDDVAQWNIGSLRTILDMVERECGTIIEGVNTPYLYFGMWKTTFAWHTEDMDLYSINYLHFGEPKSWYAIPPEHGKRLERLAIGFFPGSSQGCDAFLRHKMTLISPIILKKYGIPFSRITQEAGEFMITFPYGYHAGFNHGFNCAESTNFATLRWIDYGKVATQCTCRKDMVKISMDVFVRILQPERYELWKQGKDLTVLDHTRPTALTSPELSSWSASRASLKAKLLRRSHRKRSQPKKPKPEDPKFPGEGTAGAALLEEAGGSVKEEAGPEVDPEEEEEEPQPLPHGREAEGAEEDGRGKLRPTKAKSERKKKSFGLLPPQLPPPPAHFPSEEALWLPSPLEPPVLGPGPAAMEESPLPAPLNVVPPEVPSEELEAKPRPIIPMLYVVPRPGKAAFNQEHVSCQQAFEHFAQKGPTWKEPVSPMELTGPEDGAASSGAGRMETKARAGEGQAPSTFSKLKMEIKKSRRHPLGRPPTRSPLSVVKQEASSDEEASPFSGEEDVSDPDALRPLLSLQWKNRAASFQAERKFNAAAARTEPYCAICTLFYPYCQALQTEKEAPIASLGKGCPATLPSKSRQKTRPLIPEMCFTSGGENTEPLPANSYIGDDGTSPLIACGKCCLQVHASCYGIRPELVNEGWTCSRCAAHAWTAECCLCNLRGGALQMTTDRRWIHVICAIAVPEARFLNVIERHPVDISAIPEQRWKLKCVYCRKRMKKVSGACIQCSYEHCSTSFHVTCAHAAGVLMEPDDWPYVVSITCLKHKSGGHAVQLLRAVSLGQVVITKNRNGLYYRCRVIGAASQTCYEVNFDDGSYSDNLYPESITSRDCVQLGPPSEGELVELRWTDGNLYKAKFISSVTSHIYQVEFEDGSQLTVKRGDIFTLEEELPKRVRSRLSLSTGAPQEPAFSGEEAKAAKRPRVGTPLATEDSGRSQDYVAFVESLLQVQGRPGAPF
- METHOD NOTES: Inhibition of KDM4B (unknown origin) measured by ELISA assay

{"columns": ["SMILES STRUCTURE", "IC50"],
 "data": [
  ["Clc1ccc(N/N=C(\\c2ccccc2)c2ccccn2)nc1", "290 nM"]
]}

---

Each entry below carries its recorded chromatographic logD.
- METHOD NOTES: Lipophilicity, logD of compound at pH 7.4 by Chromatography
- Assay type: physicochemical
- MEASUREMENT PARAMETERS: buffer

{"columns": ["SMILES STRUCTURE", "chromatographic logD"],
 "data": [
  ["O=c1[nH]c(Oc2cnn(Cc3ccccc3)c2)nc2cnccc12", 1.8],
  ["O=C(O)c1ccncc1NCc1ccco1", 0.1]
]}

---

- TEST SYSTEM: Lysine-specific demethylase 4A (Homo sapiens)
- Sequence (O75164 whole entry, the tested form may be a part): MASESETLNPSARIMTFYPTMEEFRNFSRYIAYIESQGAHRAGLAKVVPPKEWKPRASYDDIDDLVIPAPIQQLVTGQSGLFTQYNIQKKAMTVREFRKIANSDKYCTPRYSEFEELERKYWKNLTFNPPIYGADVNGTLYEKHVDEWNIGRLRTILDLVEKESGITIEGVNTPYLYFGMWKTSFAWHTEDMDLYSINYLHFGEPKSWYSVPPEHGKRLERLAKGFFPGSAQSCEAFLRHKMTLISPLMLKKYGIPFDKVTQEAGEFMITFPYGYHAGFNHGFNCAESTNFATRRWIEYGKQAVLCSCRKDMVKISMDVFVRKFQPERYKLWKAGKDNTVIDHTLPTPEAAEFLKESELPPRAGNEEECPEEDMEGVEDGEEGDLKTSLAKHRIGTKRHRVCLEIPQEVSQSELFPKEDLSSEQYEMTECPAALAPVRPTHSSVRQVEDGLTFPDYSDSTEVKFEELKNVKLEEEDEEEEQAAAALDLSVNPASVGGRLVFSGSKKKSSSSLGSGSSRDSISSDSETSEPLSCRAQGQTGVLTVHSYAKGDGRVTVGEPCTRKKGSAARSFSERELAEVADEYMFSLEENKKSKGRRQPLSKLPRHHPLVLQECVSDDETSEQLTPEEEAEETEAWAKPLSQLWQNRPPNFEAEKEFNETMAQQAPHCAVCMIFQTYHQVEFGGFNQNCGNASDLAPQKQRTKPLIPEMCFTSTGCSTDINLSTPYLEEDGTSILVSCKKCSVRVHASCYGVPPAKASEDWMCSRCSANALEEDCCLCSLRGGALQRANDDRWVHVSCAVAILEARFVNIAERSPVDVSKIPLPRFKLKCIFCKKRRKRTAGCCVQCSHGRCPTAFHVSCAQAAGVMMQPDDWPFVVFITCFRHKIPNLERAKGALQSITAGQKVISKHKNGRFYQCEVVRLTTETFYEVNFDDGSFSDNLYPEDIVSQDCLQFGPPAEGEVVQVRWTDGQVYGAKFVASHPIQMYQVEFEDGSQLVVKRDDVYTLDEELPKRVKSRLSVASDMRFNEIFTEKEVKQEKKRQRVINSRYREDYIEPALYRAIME
- METHOD NOTES: Inhibition of human KDM4A (1 to 350 residues) measured by ELISA assay
pIC50: −log10 of the molar value.
PARAMETER MEASURED: pIC50

{"columns": ["SMILES STRUCTURE", "REPORTED VALUE"],
 "data": [
  ["Clc1ccc(N/N=C(\\c2ccccc2)c2ccccn2)nc1", 6.54]
]}

---

- TEST SYSTEM: UniProtKB P29375
- Sequence (P29375 whole entry): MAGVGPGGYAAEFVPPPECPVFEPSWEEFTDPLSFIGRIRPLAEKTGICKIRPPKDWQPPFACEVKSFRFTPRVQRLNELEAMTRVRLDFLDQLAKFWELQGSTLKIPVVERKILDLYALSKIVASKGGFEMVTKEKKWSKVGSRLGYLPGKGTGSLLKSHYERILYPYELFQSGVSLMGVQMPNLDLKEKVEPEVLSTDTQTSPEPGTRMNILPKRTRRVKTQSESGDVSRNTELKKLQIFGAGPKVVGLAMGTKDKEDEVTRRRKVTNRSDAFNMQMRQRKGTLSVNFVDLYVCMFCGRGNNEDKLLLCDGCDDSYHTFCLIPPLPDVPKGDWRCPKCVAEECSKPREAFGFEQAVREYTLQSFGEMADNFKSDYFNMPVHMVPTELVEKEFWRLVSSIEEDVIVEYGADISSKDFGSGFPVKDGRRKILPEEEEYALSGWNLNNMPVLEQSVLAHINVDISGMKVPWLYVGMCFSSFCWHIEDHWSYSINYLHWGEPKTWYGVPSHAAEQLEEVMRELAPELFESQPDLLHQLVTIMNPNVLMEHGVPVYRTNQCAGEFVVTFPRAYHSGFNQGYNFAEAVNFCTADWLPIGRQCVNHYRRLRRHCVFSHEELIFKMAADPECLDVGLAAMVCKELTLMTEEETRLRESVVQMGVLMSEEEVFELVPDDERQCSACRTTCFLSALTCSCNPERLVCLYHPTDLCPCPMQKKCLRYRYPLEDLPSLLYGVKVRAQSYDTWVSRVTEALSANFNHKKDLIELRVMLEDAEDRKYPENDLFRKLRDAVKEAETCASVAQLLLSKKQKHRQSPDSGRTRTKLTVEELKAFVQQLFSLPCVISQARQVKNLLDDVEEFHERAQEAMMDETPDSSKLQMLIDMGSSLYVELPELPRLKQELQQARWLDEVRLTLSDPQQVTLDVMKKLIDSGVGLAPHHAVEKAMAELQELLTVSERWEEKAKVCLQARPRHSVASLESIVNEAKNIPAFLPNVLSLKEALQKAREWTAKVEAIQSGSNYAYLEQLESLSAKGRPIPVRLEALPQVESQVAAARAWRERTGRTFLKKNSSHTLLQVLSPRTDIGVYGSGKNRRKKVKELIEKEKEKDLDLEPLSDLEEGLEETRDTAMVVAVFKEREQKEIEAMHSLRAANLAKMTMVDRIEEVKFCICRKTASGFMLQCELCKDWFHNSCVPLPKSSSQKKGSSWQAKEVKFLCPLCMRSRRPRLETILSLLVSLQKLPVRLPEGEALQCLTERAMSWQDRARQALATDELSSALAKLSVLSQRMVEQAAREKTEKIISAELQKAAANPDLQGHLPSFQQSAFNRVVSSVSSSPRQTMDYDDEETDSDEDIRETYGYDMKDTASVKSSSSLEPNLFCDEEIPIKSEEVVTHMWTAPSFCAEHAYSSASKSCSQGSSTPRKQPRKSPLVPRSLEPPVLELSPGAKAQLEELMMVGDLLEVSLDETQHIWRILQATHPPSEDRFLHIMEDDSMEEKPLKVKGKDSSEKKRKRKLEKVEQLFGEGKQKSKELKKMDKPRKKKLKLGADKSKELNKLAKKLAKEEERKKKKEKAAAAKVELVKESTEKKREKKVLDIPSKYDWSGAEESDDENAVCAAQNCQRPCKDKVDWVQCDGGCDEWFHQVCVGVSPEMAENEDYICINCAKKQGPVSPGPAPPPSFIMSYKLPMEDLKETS
PARAMETER MEASURED: IC50 (nM)

{"columns": ["COMPOUND", "TEST SYSTEM", "PARAMETER MEASURED", "REPORTED VALUE"],
 "data": [
  ["CO[C@H]1/C=C\\C=C(/C)C(=O)NC2=CC(=O)C(NCCN(C)C)=C(C[C@@H](C)C[C@H](OC)[C@H](O)[C@@H](C)/C=C(\\C)[C@@H]1OC(N)=O)C2=O (stereo in doubt) [ALVESPIMYCIN]", "UniProtKB P29375", "IC50", 130]
]}
